TARGET SYSTEM: T1, human C type Lectin Like molecule 1 (CLL-1) on cells (human, UniProt Q5QGZ9 1-265)
T1 construct: also called hCLL-1; CLEC12A
T1 sequence: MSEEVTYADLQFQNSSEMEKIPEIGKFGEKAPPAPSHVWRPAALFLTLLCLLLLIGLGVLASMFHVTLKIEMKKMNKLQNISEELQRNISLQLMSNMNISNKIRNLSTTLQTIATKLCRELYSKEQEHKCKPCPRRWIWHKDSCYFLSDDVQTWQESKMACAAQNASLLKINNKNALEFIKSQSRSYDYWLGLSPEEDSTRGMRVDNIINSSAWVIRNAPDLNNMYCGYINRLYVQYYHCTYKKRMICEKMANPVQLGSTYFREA
TEST DESCRIPTION: FACS, HL60 AML cell line
MEASUREMENT KIND: % of live cells with antibody binding (%)
Kindly answer with a numeric value in %, unit omitted.

Sample CLL-1 antibody clone M5 (antibody, IgG2a, V domains shown) VH: EVQLQQSGAELVRPGASVKLSCTASGFNIKDDYIHWVKQRPEQGLEWIGWIDPEKGDTAYASKFQDKATITSDTSSNTAYLQLSSLTSEDTAVYYCTLTGRFDYWGQGTTLTVSS VL: DIVMSQSPSSLAVSVGEKVTMSCKSSQSLLYSSNQKNNLAWYQQKPGQSPKLLIYWASTRESGVPDRFTGSGSGTDFTLTISSVQAEDLAVYYCQQYYSYRTFGGGTKLEIK — what was its % of live cells with antibody binding?
1.7

Sample CLL-1 antibody clone M31 (antibody, IgG2a, V domains shown) VH: EVQLQQSGPELVKPGASVKMSCKASGYTFTSYVMHWVKQKPGQGLEWIGYINPYNDGTKYNEKFKGKATLTSDTSSSTAYMELNSLTSEDSAVYFCARPIYFDNDYFDYWGQGTTLKVSS VL: TIVLTQSPASLAVSLGQRATISCRASESVDSYGNSFMHWYQQKPGQPPKLLIYLASNLESGVPARFSGSGSRTDFTLTIDPVEADDAATYYCQQNNYDPWTFGGGTKLEIK — what was its % of live cells with antibody binding?
91

Param item = CLL-1 antibody clone G12 (antibody, IgG1, V domains shown) VH: QVQLQQPGAELVKPGASMKMSCKASGYTFPSSNIHWLKQTPGQGLEWIGVIYPGNGDTSYNQKFKDKATLTTDKSSSTAYMQLSSLTSEDSAIYFCARVYNWHFDVWGAGTTVTVSS VL: NIVLTQSPASLAVSLGQRATISCRASESVDGYGDIFMLWYQQKPGQPPKLLIYFASNLESGVPARFSGSGSRTDFTLTIDPVEADDAATYYCQQNNEDPYTFGGGTKLEIKR ; retrieve measured % of live cells with antibody binding.
88.3

What measured % of live cells with antibody binding goes with CLL-1 antibody clone G4 (antibody, IgG1, V domains shown, also called 31.G4; 31G4) VH: EVQLQQSGPELVKPGASMKISCKASGYSFTGYTMNWVKQSHEKNLEWIGPINPYNDGTIYNPNFKGKATLTVDKASSTAYMELLSLTSDDPAVYYCARTDDYDDYTMDYWGQGTSVTVSS VL: EIQMTQTPSSLSASLGDRVTISCRASHDISNYLNWYQQKPDGTLKLLIYYTSRLHSGVPSRFSGSGSGTDYSLTISNLEQEDIATYFCQQGKTLLWTFGGGTKLEIK ?
83.2
